Origin of values: patent US20140288040A1

Target: HCV NS3 protease (full length NS34a) (Hepatitis C virus genotype 1b)
Construct: The protease activity of the full length NS34a was measured using a FRET-based assay; made in house
Sequence (P26663 1658-1711): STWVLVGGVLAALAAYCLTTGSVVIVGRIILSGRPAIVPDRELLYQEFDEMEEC
Sequence (P26663 1027-1657): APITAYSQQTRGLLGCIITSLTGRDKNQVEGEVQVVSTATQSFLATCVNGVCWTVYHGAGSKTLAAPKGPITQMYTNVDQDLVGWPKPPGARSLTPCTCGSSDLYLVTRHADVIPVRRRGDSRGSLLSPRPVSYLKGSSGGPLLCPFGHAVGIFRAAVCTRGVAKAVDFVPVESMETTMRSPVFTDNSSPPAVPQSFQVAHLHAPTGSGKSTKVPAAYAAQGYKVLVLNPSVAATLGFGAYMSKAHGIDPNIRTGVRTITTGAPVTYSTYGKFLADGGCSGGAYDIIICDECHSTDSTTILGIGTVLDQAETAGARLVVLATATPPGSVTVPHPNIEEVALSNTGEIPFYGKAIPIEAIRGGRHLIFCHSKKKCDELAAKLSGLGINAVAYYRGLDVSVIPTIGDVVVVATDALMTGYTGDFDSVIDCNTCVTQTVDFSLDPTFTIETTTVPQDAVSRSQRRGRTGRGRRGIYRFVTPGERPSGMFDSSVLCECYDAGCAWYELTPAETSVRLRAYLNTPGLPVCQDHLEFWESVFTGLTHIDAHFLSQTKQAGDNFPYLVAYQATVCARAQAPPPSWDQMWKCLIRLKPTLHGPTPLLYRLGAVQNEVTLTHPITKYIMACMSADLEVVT
Assay: HCV NS3 protease assay (FRET, full length NS34a)
Format: biochemical
Conditions: protease activity of full length NS34a, FRET peptide substrate; read-out: Activity IC50
Define the label as Satisfied when IC50 is strictly less than 4 µM and as Not satisfied in all remaining cases.

[[record]]
compound = "CC[C@@H](N)c1ccc(Cl)c(Oc2cccc(CNC(C)=O)c2)c1F [Example 173]"
label_value = "Satisfied"

[[record]]
compound = "CC[C@@H](N)c1ccc(Cl)c(Oc2ccc(S(C)(=O)=O)cc2)c1F [Example 174]"
label_value = "Not satisfied"

[[record]]
compound = "CC[C@@H](N)c1ccc(Cl)c(Oc2cccc(CO)c2)c1F [Example 115]"
label_value = "Satisfied"

[[record]]
compound = "CC[C@@H](N)c1ccc(Cl)c(Oc2ccc(C)nc2)c1F [Example 180]"
label_value = "Satisfied"

[[record]]
compound = "CCC(NCC1CCNCC1)c1ccc(F)c(Oc2ccccc2)c1F (stereo not drawn) [Example 29]"
label_value = "Not satisfied"

[[record]]
compound = "CCC(N[C@H]1CC[C@H](N)CC1)c1ccc(F)c(Oc2ccccc2)c1F (stereo partly drawn) [Example 5]"
label_value = "Satisfied"

[[record]]
compound = "C#Cc1ccc(Oc2c(Cl)ccc([C@@H](CC)N[C@H](C)CC(N)=O)c2F)cc1 [Example 229]"
label_value = "Satisfied"

[[record]]
compound = "CC[C@H](CC(N)=O)N[C@H](CC)c1ccc(Cl)c(Oc2ccccc2)c1F [Example 135]"
label_value = "Not satisfied"

[[record]]
compound = "Cc1cc(Oc2c(F)ccc(CN[C@H]3CC[C@@H](N)CC3)c2F)ccc1N [Example 288]"
label_value = "Satisfied"

